Measured IC50, listed per entry for reference.
system: HCT-116; test: Cytotoxicity against human HCT116 cells after 48 hrs by MTT assay; format: functional, cell-based; details: HCT-116, 48 h
readout-type: IC50 (µM)

INSERT INTO assay_data (compound, reported_value) VALUES
  ('CN(C)CCN1C(=O)c2cccc3cc(N)cc(c23)C1=O [AMONAFIDE]', 6.46),
  ('CCCCN1C(=O)c2ccc3c4c(ccc(c24)C1=O)C(=O)N(c1cccnc1)C3=O', 36.3),
  ('CC(C)CN1C(=O)c2ccc3c4c(ccc(c24)C1=O)C(=O)N(CCCO)C3=O', 8.29),
  ('CCCCN1C(=O)c2ccc3c4c(ccc(c24)C1=O)C(=O)N(CC(C)C)C3=O', 28.2),
  ('CCCCN1C(=O)c2ccc3c4c(ccc(c24)C1=O)C(=O)N(c1ncccn1)C3=O', 9.22);
